molecular target: Lp-PLA2 in human plasma (Homo sapiens); construct: from tissue; host or cells: pooled human plasma; assay: (3a) Lp-PLA2 human plasma Thio-PAF assay; type: biochemical; conditions: (3a) Thio-PAF assay, pooled human plasma; Examples 1-265 and 413-430 were tested here; read-out: pIC50 in the Lp-PLA2 human plasma assay (converted)
Sequence (Q13093 22-441): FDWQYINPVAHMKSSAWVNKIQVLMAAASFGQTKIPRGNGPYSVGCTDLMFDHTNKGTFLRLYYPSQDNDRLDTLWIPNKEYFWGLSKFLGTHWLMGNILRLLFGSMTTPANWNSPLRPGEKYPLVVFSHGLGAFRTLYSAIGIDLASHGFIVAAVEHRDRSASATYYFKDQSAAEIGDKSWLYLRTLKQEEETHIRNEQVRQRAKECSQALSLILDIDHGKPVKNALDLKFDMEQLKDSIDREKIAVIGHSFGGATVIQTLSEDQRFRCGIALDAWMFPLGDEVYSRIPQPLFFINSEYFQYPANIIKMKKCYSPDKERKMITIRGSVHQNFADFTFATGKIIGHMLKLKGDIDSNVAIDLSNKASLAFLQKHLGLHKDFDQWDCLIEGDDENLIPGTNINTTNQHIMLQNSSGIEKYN
experimental.endpoint: IC50

[[record]]
molecular_string = "O=c1nc(NCc2cccc(F)c2)cc2n1C[C@H]1CCCN21"
observed_result = "≤ 10 µM"

[[record]]
molecular_string = "Cn1cc(Oc2ccc(COc3cc4n(c(=O)n3)C[C@H]3CCCN43)cc2F)cn1"
observed_result = "≤ 10 µM"

[[record]]
molecular_string = "O=c1nc(OCc2cc(F)c(Oc3cnn(C(F)(F)F)c3)c(F)c2)cc2n1C[C@@H]1COCN21"
observed_result = "≤ 0.1 µM"


Could you report IC50 for every entry in the following list?
1. CCCn1cc(Oc2c(F)cc(COc3cc4n(c(=O)n3)C[C@@H]3COCN43)cc2F)cn1
2. O=c1nc(OCc2ccc(F)cc2F)cc2n1C[C@H]1CCCN21
3. O=c1nc(OCc2cccc(F)c2F)cc2n1C[C@@H]1CCOCN21

# output
["≤ 10 µM", "≤ 10 µM", "≤ 10 µM"]
